All values here come from ChEMBL document CHEMBL1129861.

# Species on record: Rattus norvegicus
# experimentDescription: Inhibitory concentration of compound to inhibit the binding of biotinylated rat myelin basic protein peptide (RMBP90-102) against DR4 allele of class II for 20 min
# Type: functional
Residues, ends and D or L forms follow the SMILES beside them. *: point of attachment. Ethoxycarbonyl = CCOC(=O)*
recordedMetric: pIC50
Please report pIC50 as the negative decimal logarithm of the molar concentration, giving only the number.

Looking up CCOC(=O)N[C@@H](Cc1ccccc1)C(=O)N[C@H](C(=O)N[C@@H](C)C(=O)N[C@@H](CC(=O)O)C(N)=O)C(C)C (Ethoxycarbonyl-FVAD-NH2) , I see its pIC50 listed as 5.92

compound CCOC(=O)N[C@@H](Cc1ccccc1)C(=O)N[C@H](C(=O)N[C@@H](C)C(=O)N[C@@H](CC(C)C)C(N)=O)C(C)C (Ethoxycarbonyl-FVAL-NH2) , pIC50 observed: 5.09
